# System: CAOV3
# assayName: Primary qHTS to identify gynecologic anti-cancer compounds using libraries of approved drugs and bioactive compounds (AID 1345084); also: nearly all actives have a fitted effect of over 55% in size
# conditionSummary: Gynecologic cancer cell panel viability, ATPlite luminescence, 48 h; series mostly up to 57.5 µM
Records with an inconclusive call do not appear. Calls of active or inactive are those of the source. Calls follow the shape of the dose curve; as a rule, active = well fitted cell-killing curve with a large enough effect; inconclusive = small, poorly fitted or top-dose-only effect, or effect the other way; inactive = flat fitted curve, though single readings scatter.
Thanks in advance; please answer with one of these: active, inactive

Reference set, count: 3
compound: O=C(Nc1ccc(Oc2ccnc3[nH]ccc23)c(F)c1)c1cccn(-c2ccc(F)cc2)c1=O
className: inactive
--
compound: CN(C)CC(=O)N1CCC(c2ccc(NC(=O)c3ncc(C#N)[nH]3)c(C3=CCCCC3)c2)CC1
className: inactive
--
compound: O=C(Nc1cc2cc[nH]c2cn1)c1ccccc1
className: active

Could you please tell me the result logged for Cc1ccccc1C(=O)Nc1ccc(C(=O)N2CCCC(O)c3cc(Cl)ccc32)c(C)c1 (centres undefined) in this assay?
inactive

* * *

# assayName: qHTS of pediatric cancer cell lines to identify multiple opportunities for drug repurposing: Confirmatory screen for LAN-5 cells (AID 1347113); also: nearly all actives have a fitted effect of over 65% in size; also: potency is read from the fitted curve at half-maximal effect
# conditionSummary: LAN-5 neuroblastoma cell viability; series mostly up to 45.9 µM
Results filed as inconclusive are left out. Active and inactive are the calls of the source. Calls come from the whole dose curve; as a rule, active = well fitted cell-killing curve with a large enough effect; inconclusive = small, poorly fitted or top-dose-only effect, or effect the other way; inactive = no such curve, though single readings can be large or run the other way.
metricName: Potency

Sample records with Potency:
substanceSmiles: O=C(O)c1ccc(Nc2ncc3c(n2)-c2ccc(Cl)cc2C(c2c(F)cccc2F)=NC3)cc1
Potency: inactive

substanceSmiles: Cn1cnc(=N)c2[nH]cnc21
Potency: inactive

substanceSmiles: CN[C@H]1[C@@H](O)[C@@H]2O[C@@H]3O[C@H](C)CC(=O)[C@]3(O)O[C@@H]2[C@@H](NC)[C@H]1O
Potency: inactive

substanceSmiles: C=CC(=O)Nc1ccc2ncnc(Nc3ccc(OCc4cccc(F)c4)c(Cl)c3)c2c1
Potency: 20800 nM (active)

substanceSmiles: CC1(C)O[C@@H]2C[C@H]3[C@@H]4CCC5=CC(=O)C=C[C@]5(C)[C@@H]4[C@@H](O)C[C@]3(C)[C@]2(C(=O)CO)O1
Potency: inactive

Respond only with Potency recorded for CC(C)N1[N]C(=C2C=c3cc(O)ccc3=N2)c2c(N)ncnc21
2930 nM (active)

Respond only with Potency recorded for CC(=O)[C@]1(O)Cc2c(O)c3c(c(O)c2[C@@H](O[C@H]2C[C@H](N)[C@@H](O)[C@H](C)O2)C1)C(=O)c1ccccc1C3=O
329 nM (active)

* * *

# assayName: Quantitative High-Throughput drug screen in 47 multiple myeloma cell lines against the NCATS MIPE library collection: EJM_DSMZ cell viability assay (AID 1918926; also: nearly all actives have a fitted effect of over 30% in size)
# conditionSummary: EJM myeloma cell viability, CellTiter-Glo ATP, 48 h; series mostly up to 45.8 µM
Results filed as inconclusive are left out. Calls of active or inactive are those of the source. The call rests on the fitted dose curve; in most records, active means well fitted cell-killing curve with a large enough effect; inconclusive means small, poorly fitted or top-dose-only effect, or effect the other way; inactive means no such curve, though single readings can be large or run the other way.
Thanks in advance; please answer with one of these: active, inactive

Reference set, count: 2
molecule: CCCCOc1ccc(C(=O)Nc2ccc(F)cc2F)cc1
className: inactive

molecule: Oc1cc(-c2nc(-c3ccccc3)[nH]c2-c2ccncc2)ccc1Cl
className: active

Could you please tell me the result logged for COc1ccc2cc([S+]([O-])Cc3ncc(C)c(OC)c3C)nc2c1 in this assay?
inactive

Could you please tell me the result logged for C[C@H](NC(=O)C(C#N)=Cc1cccc(Br)n1)c1ccccc1 in this assay?
active

Could you please tell me the result logged for O=C1c2cccc(O)c2C(=O)c2c(O)cc(CO)cc21 in this assay?
inactive

Could you please tell me the result logged for CS(=O)(=O)N1CCc2c(-c3cnc(N)nc3)nc(N3CCOCC3)nc21 in this assay?
active

Could you please tell me the result logged for N=c1ccn2c(n1)O[C@H]1[C@@H](O)[C@@H](CO)O[C@H]12 in this assay?
inactive

Could you please tell me the result logged for CCOC(=O)C1=C(C)NC(=S)NC1c1cccc(O)c1 (centres undefined) in this assay?
active

Could you please tell me the result logged for CN[C@@H]1C[C@H]2O[C@@](C)([C@H]1OC)n1c3ccccc3c3c4c(c5c6ccccc6n2c5c31)C(=O)N[C@H]4O in this assay?
active

Could you please tell me the result logged for O=C(c1ccc(F)cc1)N1CCC[C@H](c2nc(-c3ccc(F)cc3)no2)C1 in this assay?
inactive

Could you please tell me the result logged for COc1cc(C)c(Sc2cnc(NC(=O)c3ccc(CNC(C)C(C)(C)C)cc3)s2)cc1C(=O)N1CCN(C(C)=O)CC1 (centres undefined) in this assay?
active

Could you please tell me the result logged for COc1cc([C@@H]2c3cc4c(cc3[C@@H](O[C@@H]3O[C@@H]5CO[C@@H](c6cccs6)O[C@@H]5[C@H](O)[C@@H]3O)[C@H]3COC(=O)[C@H]23)OCO4)cc(OC)c1O in this assay?
active

* * *

# assayName: qHTS of pediatric cancer cell lines to identify multiple opportunities for drug repurposing: Primary screen for OHS-50 cells (AID 1347103); also: nearly all actives have a fitted effect of over 40% in size
# conditionSummary: OHS-50 osteosarcoma viability, CellTiter-Glo luminescence, 48 h; series mostly up to 57.3 µM
Results filed as inconclusive are left out. Active and inactive are the calls of the source. The call rests on the fitted dose curve; in most records, active means well fitted cell-killing curve with a large enough effect; inconclusive means small, poorly fitted or top-dose-only effect; inactive means no such curve, though single readings can be large or run the other way.
Thanks in advance; please answer with one of these: active, inactive

Reference set, count: 3
substanceSmiles: Cc1ccc([N+](=O)[O-])cc1S(=O)(=O)N(C)N=Cc1cnc2ccc(Br)cn12
className: active
//
substanceSmiles: CN(C)c1ccc(C(=O)NCCCCCCC(=O)NO)cc1
className: active
//
substanceSmiles: Nc1ncn([C@@H]2O[C@H](CO)[C@@H](O)[C@@H]2O)c(=O)n1
className: active

Could you please tell me the result logged for c1cc(CN2CCCNCCNCCCNCC2)ccc1CN1CCCNCCNCCCNCC1 in this assay?
inactive

* * *

# assayName: Quantitative High-Throughput drug screen in 47 multiple myeloma cell lines against the NCATS MIPE library collection: EJM_DSMZ cell viability assay (AID 1918926)
# conditionSummary: EJM myeloma cell viability, CellTiter-Glo ATP, 48 h; series mostly up to 45.8 µM
Records with an inconclusive call do not appear. The source made the active and inactive calls. Calls follow the shape of the dose curve; as a rule, active = well fitted cell-killing curve with a large enough effect; inconclusive = small, poorly fitted or top-dose-only effect, or effect the other way; inactive = no such curve, though single readings can be large or run the other way. Residues, ends and D or L forms follow the SMILES beside them. *: point of attachment. Cbz = O=C(OCc1ccccc1)*
Thanks in advance; please answer with one of these: active, inactive

Reference set, count: 3
compound: CC(C)C[C@@H](C=O)NC(=O)[C@H](CC(C)C)NC(=O)[C@H](CC(C)C)NC(=O)OCc1ccccc1 (Cbz-Leu-Leu-Leu-aldehyde)
className: active

compound: CC(=O)OCC(=O)[C@@]1(O)CC[C@H]2[C@@H]3CCC4=CC(=O)CC[C@]4(C)[C@@H]3C(=O)C[C@@]21C
className: inactive

compound: C=C1C(=CC=C2CCC[C@]3(C)[C@@H]([C@H](C)CCCC(C)(C)O)CC[C@@H]23)C[C@@H](O)C[C@@H]1O
className: active

Could you please tell me the result logged for CNC(=O)c1cccc(-c2ccc3c(N4CCOC[C@H]4C)nc(N4CCOC[C@H]4C)nc3n2)c1 in this assay?
active

Could you please tell me the result logged for COc1ccc2c(c1OC)C(=O)OC2[C@H]1c2c(cc3c(c2OC)OCO3)CCN1C (some centres not stated) in this assay?
active

Could you please tell me the result logged for CON=C(C(=O)N[C@@H]1C(=O)N2C(C(=O)O)=C(Cn3ccc(=N)n3CCO)CS[C@H]12)c1csc(N)n1 in this assay?
inactive

* * *

# assayName: qHTS of pediatric cancer cell lines to identify multiple opportunities for drug repurposing: Primary screen for TC32 cells (AID 1347089); also: nearly all actives have a fitted effect of over 60% in size
# conditionSummary: TC32 Ewing sarcoma viability, CellTiter-Glo luminescence, 48 h; series mostly up to 45.8 µM
# Protocol: Drug repurposing or repositioning has been offered as a strategy for drug development in oncology programs. […] [1] Shen, M et al. Quantitative high-throughput phenotypic screening of pediatric cancer cell lines identifies multiple opportunities for drug repurposing. […] Cells were assayed in growth media at a density of 500-1,000 cells/well. […] After a 15min incubation at room temperature, samples were analyzed for luminescence intensity using a ViewLux High-throughput CCD imager equipped with clear filters.
Records with an inconclusive call do not appear. Activity calls are given as the source filed them. Calls follow the shape of the dose curve; as a rule, active = well fitted cell-killing curve with a large enough effect; inconclusive = small, poorly fitted or top-dose-only effect; inactive = flat fitted curve, though single readings scatter.
Thanks in advance; please answer with one of these: true (1) (active), false (0) (inactive)

Reference set, count: 2
substanceSmiles: O=c1c(O)c(-c2ccc(O)c(O)c2)oc2cc(O)ccc12
className: false (0)
--
substanceSmiles: CC(C)c1cnn2c(NCc3ccccc3)cc(NCCCCCCN)nc12
className: false (0)

Now for a further molecule.
Could you please tell me the result logged for COc1cc(C=CC(=O)CC(=O)C=Cc2ccc(O)c(OC)c2)ccc1O in this assay?
true (1)

* * *

# assayName: Quantitative High-Throughput drug screen in 47 multiple myeloma cell lines against the NCATS MIPE library collection: KMS27_JCRB cell viability assay (AID 1918970); also: nearly all actives have a fitted effect of over 30% in size
# conditionSummary: KMS27 myeloma cells, CellTiter-Glo ATP viability, 48 h
Records with an inconclusive call do not appear. Activity calls are given as the source filed them. Calls follow the shape of the dose curve; as a rule, active = well fitted cell-killing curve with a large enough effect; inconclusive = small, poorly fitted or top-dose-only effect, or effect the other way; inactive = no such curve, though single readings can be large or run the other way.
Thanks in advance; please answer with one of these: t (active), f (inactive)

Reference set, count: 2
compound: CCNC(=O)Nc1ccc(-c2nc3c(c(N4CCOC[C@H]4C)n2)CCN(C2COC2)C3)cc1
className: t
//
compound: Nc1cccc2c1C(=O)N(C1CCC(=O)NC1=O)C2=O (stereo not drawn)
className: f

Could you please tell me the result logged for CC(O)(C#Cc1ccc2c(c1)N(c1nc(N)ncc1Cl)CC2)c1nccs1 (stereo not drawn) in this assay?
t
